# systemName: T1, PUF4 RNA-binding domain (Saccharomyces cerevisiae, UniProt P25339 537-888)
# T1 sequence: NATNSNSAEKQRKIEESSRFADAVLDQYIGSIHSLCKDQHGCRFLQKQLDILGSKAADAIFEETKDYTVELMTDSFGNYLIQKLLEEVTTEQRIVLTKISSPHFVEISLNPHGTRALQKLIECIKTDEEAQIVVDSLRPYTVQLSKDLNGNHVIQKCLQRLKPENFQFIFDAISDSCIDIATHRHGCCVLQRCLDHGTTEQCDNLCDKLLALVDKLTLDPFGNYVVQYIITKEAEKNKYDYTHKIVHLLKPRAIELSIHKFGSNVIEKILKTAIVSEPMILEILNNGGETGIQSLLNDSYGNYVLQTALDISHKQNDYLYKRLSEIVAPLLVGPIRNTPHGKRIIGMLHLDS
# test: Mg; RNA-MaP; 20 mM Na-HEPES pH 7.4, 30 mM KOAc, 0.75 mM MgCl2, 0.1% Tween-20, 5% glycerol, 0.1 mg/mL BSA, 2 mM DTT; 25 C; 0.0125-409.6 nM protein
# measurementContext: tags: N-His6-TEV cleaved; C-SNAP kept, Cy3B-labelled; label: tethered on chip by stalled RNA polymerase
parameterMeasured: Kd (nM)
Reply numerically in nM, unit not repeated.

Below: 2 binders and their reported Kd.
>  <binder>
UCUCUUUGUAUUAGUAUCUCUU (ssRNA) [Ia_S1_P5E.1_K5.1_C5.1_H5.1_A5.1_F5.1_[T8G]_T5.1]

>  <Kd, nM>
18.2

$$$$
>  <binder>
ACAAACGUUAUAUAUACCACAAAC (ssRNA) [Id_ii_S3_P3E.3_K3.2_C3.2_[C-2G]_H3.2_A3.1_F3.1_T3.2_[T9C]_[A10C]]

>  <Kd, nM>
1700

$$$$

// switching to the query binder
Query :: Name the recorded Kd for Ic_S2_P3E.1_K3.1_C3.1_H3.1_A3.1_[T5G]_[A6T]_F3.1_[T7G]_[A8T]_T3.1 (ssRNA) RNA: UUUGAUUAAUAUGAUAUCGUUCUUUCUUGUAGUGUUUCUUUCUCGAUAUCAUAUUAAUCUUU .
Result :: 105
